Test system: Sinapis arvensis
assayProtocol: Test H weed control, field plots
Format: in vivo
conditionDescription: 36 days after treatment; g a.i./ha: tribenuron-methyl 22.5, metsulfuron-methyl 6, ethametsulfuron-methyl 16, imazapyr isopropylamine salt 15, aclonifen 1200
Counter-ions that a name gives are not always drawn.
readoutKind: weed control, visual rating: Sinapis arvensis (%)
One number for each entry, in %.

>  <compound>
CCOc1nc(NC)nc(NC(=O)NS(=O)(=O)c2ccccc2C(=O)OC)n1 [Ethametsulfuron-methyl, ethametsulfuron-methyl]

>  <reportedValue>
97

$$$$
>  <compound>
CC(C)C1(C)N=C(c2ncccc2C(=O)O)NC1=O (centres unmarked) [Imazapyr, isopropylamine salt, Imazapyr]

>  <reportedValue>
100

$$$$
>  <compound>
COC(=O)c1ccccc1S(=O)(=O)NC(=O)N(C)c1nc(C)nc(OC)n1 [Tribenuron-methyl, tribenuron-methyl]

>  <reportedValue>
100

$$$$

Each of the following entries comes with a recorded value; kindly state weed control, visual rating: Sinapis arvensis for each.
1. Nc1c([N+](=O)[O-])ccc(Oc2ccccc2)c1Cl [Aclonifen, aclonifen]
2. COC(=O)c1ccccc1S(=O)(=O)NC(=O)Nc1nc(C)nc(OC)n1 [Metsulfuron-methyl, metsulfuron-methyl]

1. 100
2. 100
